In this section, each of the compounds is paired with its reported IC50.
Molecular target: hERG channel (Homo sapiens, UniProt Q12809)
Sequence (Q12809 whole entry): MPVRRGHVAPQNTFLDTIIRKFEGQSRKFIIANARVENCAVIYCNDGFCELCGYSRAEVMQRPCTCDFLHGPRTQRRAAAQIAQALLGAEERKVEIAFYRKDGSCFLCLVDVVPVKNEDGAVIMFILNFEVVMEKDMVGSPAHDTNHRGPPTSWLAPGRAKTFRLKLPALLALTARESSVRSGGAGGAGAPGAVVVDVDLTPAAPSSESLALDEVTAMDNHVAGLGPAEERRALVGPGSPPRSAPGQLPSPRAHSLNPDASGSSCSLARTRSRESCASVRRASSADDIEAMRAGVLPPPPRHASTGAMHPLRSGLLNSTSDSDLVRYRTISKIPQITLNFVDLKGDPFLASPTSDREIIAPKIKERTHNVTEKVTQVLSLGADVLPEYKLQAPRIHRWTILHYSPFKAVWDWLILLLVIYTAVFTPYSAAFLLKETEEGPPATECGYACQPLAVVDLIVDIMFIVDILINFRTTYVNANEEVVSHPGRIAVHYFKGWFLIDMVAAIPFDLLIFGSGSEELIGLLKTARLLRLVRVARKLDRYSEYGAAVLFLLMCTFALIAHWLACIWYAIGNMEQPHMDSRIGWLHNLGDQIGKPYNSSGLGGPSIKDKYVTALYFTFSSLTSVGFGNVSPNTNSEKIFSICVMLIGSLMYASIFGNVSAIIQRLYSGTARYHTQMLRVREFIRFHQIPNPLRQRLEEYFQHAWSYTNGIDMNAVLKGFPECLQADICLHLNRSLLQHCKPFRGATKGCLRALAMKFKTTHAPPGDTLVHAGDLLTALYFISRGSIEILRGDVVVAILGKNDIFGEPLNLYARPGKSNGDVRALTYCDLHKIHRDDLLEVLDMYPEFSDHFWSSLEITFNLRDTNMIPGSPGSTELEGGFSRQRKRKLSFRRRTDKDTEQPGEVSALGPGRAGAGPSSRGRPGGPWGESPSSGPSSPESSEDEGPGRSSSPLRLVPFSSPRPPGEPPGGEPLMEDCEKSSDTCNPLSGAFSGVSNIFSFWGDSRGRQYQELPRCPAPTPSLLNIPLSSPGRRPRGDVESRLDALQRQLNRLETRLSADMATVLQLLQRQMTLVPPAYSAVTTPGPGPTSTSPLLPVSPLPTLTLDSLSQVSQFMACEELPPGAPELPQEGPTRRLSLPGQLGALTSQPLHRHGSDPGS
Experiment: hERG electrophysiology, automated whole-cell patch clamp (Patchliner)

Some compounds with recorded IC50:
COC[C@H](O)C(=O)N1CCC([C@@H](N)c2cc(Cl)c(Cl)cc2O)CC1 :: > 30 µM
CN1CC[C@H](C(=O)N2CCC([C@@H](N)c3cc(Cl)c(Cl)cc3O)CC2)C1 :: > 30 µM
N[C@@H](c1cc(Cl)c(Cl)cc1O)C1CCN(C(=O)[C@@H]2CC[C@H](O)C2)CC1 (single isomer, unassigned; isomer 2) :: < 30 µM
NC(c1cc(Cl)c(Cl)cc1O)C1CCN(C(=O)c2ccccc2)CC1 (stereo not shown) :: < 30 µM
C[C@@H](O)[C@H](N)C(=O)N1CCC([C@@H](N)c2cc(Cl)c(Cl)cc2O)CC1 :: > 30 µM
N[C@@H](c1cc(Cl)c(Cl)cc1O)C1CCN(c2ccn[nH]2)CC1 :: > 30 µM

Here is the next item to consider.
[ask] Can you share its IC50? I mean this compound: O=C([C@@H]1CCNC1)N1CCC(Cc2c(O)ccc(Cl)c2Cl)CC1
[reply] < 30 µM
